This collection of values is drawn from patent US20210253598A1.

Exercise: state measured IC50 for each of the compounds provided.
test system: SUDHL10; assay: Induction of cytotoxicity in SUDHL10 cells, CellTiter-Glo (Assay 6); type: cell-based; conditions: SUDHL10, 5 hours incubation, median, read-out: Cytotox SUDHL10 [M] (median)

- CCc1c2c(nn1C)COCc1ccccc1Cn1c(C(=O)O)c(CCCOc3cccc4cc(F)ccc34)c3ccc(Cl)c-2c31 (single isomer, unassigned; enantiomer 2) [Example 56]: 3.7e-06 M
- Cc1c2c(nn1C)CN(S(=O)(=O)CCN1CCOCC1)Cc1ccccc1Cn1c(C(=O)O)c(CCCOc3cccc4ccccc34)c3cccc-2c31 (single isomer, unassigned; enantiomer 1) [Example 31]: > 7.8e-05 M

IN: Given Cc1c2c(nn1C)COCc1ccccc1Cn1c(C(=O)O)c(CCCOc3cccc4ccccc34)c3cccc-2c31 (single isomer, unassigned; enantiomer 2) [Example 3] , state its recorded IC50.
OUT: > 3.3e-05 M
